Biological target: UniProt:P15090
Sequence (P15090 whole entry): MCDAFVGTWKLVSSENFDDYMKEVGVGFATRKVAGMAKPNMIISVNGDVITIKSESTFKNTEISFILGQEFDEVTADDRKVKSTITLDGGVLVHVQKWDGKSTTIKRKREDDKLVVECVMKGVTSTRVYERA
Experiment: Displacement of 1,8-ANS from aFABP by fluorescence based-assay
pKi: −log10 of the molar value.
Kindly state pKi for each of the entries shown.

[ask] Quick one: pKi for Cn1c(-c2ccccc2-c2cccc(OCC(=O)O)c2)nc(-c2ccccc2)c1-c1ccccc1 ?
[reply] > 8.70

[ask] Quick one: pKi for O=C(O)COc1cccc(-c2ccccc2-c2nc(-c3ccccc3)c(-c3ccccc3)n2CCF)c1 ?
[reply] > 8.70

[ask] Quick one: pKi for CCn1c(-c2ccccc2-c2cccc(OCC(=O)O)c2)nc(-c2ccccc2)c1-c1ccccc1 ?
[reply] > 8.70

[ask] Quick one: pKi for O=C(O)CNc1cccc(-c2ccccc2-c2nc(-c3ccccc3)c(-c3ccccc3)n2CC(=O)O)c1 ?
[reply] < 5.70

---

Biological target: UniProtKB P15090
Assay: Displacement of 1,8-ANS from aFABP by fluorescence based-assay
Kindly state pKi for each of the entries shown.
// scale note: pKi = -log10(conc_M); give the bare number

[ask] Quick one: pKi for O=C(O)COc1cccc(-c2ccccc2-c2nc(-c3ccccc3)c(-c3ccccc3)[nH]2)c1 ?
[reply] 8.03

[ask] Quick one: pKi for O=C(O)COc1cccc(-c2ccccc2-c2nc(-c3ccccc3)c(-c3ccccc3)o2)c1 ?
[reply] 8.22

[ask] Quick one: pKi for O=C(O)COc1cccc(-c2ccccc2-c2cc(-c3ccccc3)c(-c3ccccc3)[nH]2)c1 ?
[reply] 7.92
